# credit: paper PMC12396409

tested on: T. gondii RH strain (RH-Tub-eYFP) tachyzoites; assay: microbe, parasite or virus in culture; format: cell-based, Toxoplasma gondii; settings: T. gondii, 72 h, 2 μg/mL; values are growth (% of control)
Where a name gives a salt, the structure may show the parent alone.
As shown below, each of these compounds has a reported Replicate 2 value.
Give a plain numeric answer without units written out.

Examples from the recorded data:
CN[C@@H]1C[C@H]2O[C@@](C)([C@@H]1OC)n1c3ccccc3c3c4c(c5c6ccccc6n2c5c31)C(=O)NC4=O = 18.54
Cc1cc2nc3c(=O)[nH]c(=O)nc-3n(C[C@H](O)[C@H](O)[C@H](O)CO)c2cc1N(C)C = 16.23
CN1CCC2(c3cccc4c3NC3N(C)CCC43c3cccc4c3NC3N(C)CCC43C34CCN(C)C3Nc3c(C56CCN(C)C5Nc5ccccc56)cccc34)c3ccccc3NC12 (stereo not drawn) = 61.99
CCCCCC1=C/C(=C/c2[nH]c(-c3ccc[nH]3)cc2OC)N=C1C = 11.46
CC(C)=CCC[C@H](C)[C@H]1CC[C@]2(C)C[C@H]3[C@H](C(=O)C[C@@]3(C)O)/C(C=O)=C\C[C@@H]12 = 89.80
CN(C)c1ccc(O)c2c1C[C@H]1C[C@H]3[C@H](N(C)C)C(O)=C(C(N)=O)C(=O)[C@@]3(O)C(O)=C1C2=O [Minocycline HCl, reference compound] = 37.51
CO[C@@H]1[C@@H](OC(N)=O)[C@@H](O)[C@H](Oc2ccc3c(O)c(NC(=O)c4ccc(O)c(CC=C(C)C)c4)c(=O)oc3c2C)OC1(C)C [Novobiocin, reference compound] = 93.65
O=C1NC(c2c[nH]c3ccccc23)=C/C1=C1\C(=O)Nc2ccccc21 = 26.55

Query: Consider the compound shown here: CO[C@@H]1[C@@H](O[C@@H]2O[C@H](C)[C@@H](O[C@H]3C[C@@](C)(O)[C@@H](OC(=O)CC(C)C)[C@H](C)O3)[C@H](N(C)C)[C@H]2O)[C@@H](CC=O)C[C@@H](C)[C@@H](O)/C=C/C=C/C[C@@H](C)OC(=O)C[C@H]1OC(C)=O [Josamycin (Leucomycin A3), reference compound] What is its recorded Replicate 2?
Reply: 23.52

Query: Consider the compound shown here: CCCC[C@H]1C(=O)O[C@H](C)[C@H](NC(=O)c2cccc(NC=O)c2O)C(=O)O[C@@H](C)[C@@H]1OC(=O)CC(C)C [Antimycin A3] What is its recorded Replicate 2?
Reply: 12.84

###

tested on: P. falciparum 3D7 parasites; experiment: P. falciparum growth inhibition assay, 2-cycle (120 h treatment), delayed-death screen and dose-response; type: cell-based, Plasmodium falciparum; conditions: library screen at 2 μg/mL, 120 h, % growth, replicate 2
measured-endpoint: Pf_120h_%Growth_Rep2 (%)
Express your answer in %, writing the number without its unit.

Examples from the recorded data:
C/C=C(\C)C(=O)OC[C@H]1O[C@H](O[C@H]2O[C@H](COC(=O)/C(C)=C/C)[C@@H](O)[C@H](O)[C@H]2O[C@@H]2O[C@H](CO)[C@@H](OC(=O)/C(C)=C/C)[C@H](OC(=O)/C(C)=C/C)[C@H]2O)[C@H](O[C@@H]2O[C@H](CO)[C@@H](OC(=O)/C(C)=C/C)[C@H](OC(=O)/C(C)=C/C)[C@H]2O)[C@@H](O)[C@@H]1O [Actinotetraose Hexatiglate] = 21.66
C=C1CC[C@H]2C(C)(C)CCC[C@]2(C)[C@H]1C[C@@]12C[C@H]3C(=O)N[C@@H](CC(C)C)C(=O)N3[C@@H]1Nc1ccccc12 = 40.06
C=C(C)[C@@H]1CC[C@]2(C(=O)OC)CC[C@]3(C)[C@H](CC[C@@H]4[C@@]5(C)CC[C@H](O)C(C)(C)[C@@H]5CC[C@]43C)[C@@H]12 [Betulinate, Methyl] = 92.78

Query: Consider the compound shown here: CC(=O)NCCc1c[nH]c2ccccc12 What is its recorded Pf_120h_%Growth_Rep2?
Reply: 87.17

Query: Consider the compound shown here: Cc1cc(=O)c(O)cc2c1C[C@@H]1CC(C)(C)/C=C/C[C@@]3(C)Oc4cc(O)c(=O)cc(C)c4C[C@@H]3C[C@@H](O)[C@]1(C)O2 What is its recorded Pf_120h_%Growth_Rep2?
Reply: 24.96

Query: Consider the compound shown here: CC[C@H]1OC(=O)[C@H](C)[C@@H](O[C@H]2C[C@@](C)(OC)[C@@H](O)[C@H](C)O2)[C@H](C)[C@@H](O[C@@H]2O[C@H](C)C[C@H](N(C)C)[C@H]2O)[C@@]2(C)CC(C)=C(O2)[C@H](C)[C@@H](O)[C@]1(C)O What is its recorded Pf_120h_%Growth_Rep2?
Reply: 73.68

Query: Consider the compound shown here: C/C=C(\C)[C@H](O)[C@H](C)/C=C(C)/C=C/C/C(C)=C/Cc1oc(OC)c(C)c(=O)c1C What is its recorded Pf_120h_%Growth_Rep2?
Reply: 89.64

Query: Consider the compound shown here: CC(C)=CCc1cc(C=C2OC(=O)C(c3cc(CC=C(C)C)c(O)cc3O)=C2O)ccc1O What is its recorded Pf_120h_%Growth_Rep2?
Reply: 98.61

Query: Consider the compound shown here: CC[C@H](C)[C@H]1O[C@]2(C=C[C@@H]1C)C[C@@H]1C[C@@H](C/C=C(\C)[C@@H](O[C@H]3C[C@H](OC)[C@@H](O[C@H]4C[C@H](OC)[C@H](NC)[C@H](C)O4)[C@H](C)O3)[C@@H](C)/C=C/C=C3\CO[C@@H]4[C@H](O)C(C)=C[C@@H](C(=O)O1)[C@]34O)O2 What is its recorded Pf_120h_%Growth_Rep2?
Reply: 6.54

Query: Consider the compound shown here: C/C=C\C=C\[C@@H]1O[C@](O)([C@H](CC)C(=O)NC/C=C/C=C(\C)[C@@H](OC)[C@@H](C)[C@H]2C[C@@H](O)[C@@H](/C=C/C=C/C=C/C(=O)O)O2)[C@H](O)[C@H](O)C1(C)C [A 83016F] What is its recorded Pf_120h_%Growth_Rep2?
Reply: 76.05

###

As shown below, each of these molecules has a reported Pf_120h_%Growth_Rep2 value.
tested on: P. falciparum 3D7 parasites; assay: P. falciparum growth inhibition assay, 2-cycle (120 h treatment), delayed-death screen and dose-response; assay type: cell-based, Plasmodium falciparum; conditions: P. falciparum, 120 h, parasite screen 2 μg/mL, % growth, replicate 2
Express your answer in %, writing the number without its unit.

Examples from the recorded data:
CC(=O)N[C@H]1[C@H](O[C@@H]2c3ccc(c(Cl)c3)Oc3cc4cc(c3O[C@@H]3O[C@H](CO)[C@@H](O)[C@H](O)[C@H]3NC(=O)CCCCCCC(C)C)Oc3ccc(cc3Cl)C[C@H]3NC(=O)[C@H](N)c5ccc(O)c(c5)Oc5cc(O)cc(c5)[C@H](NC3=O)C(=O)N[C@H]4C(=O)N[C@H]3C(=O)N[C@@H]2C(=O)N[C@H](C(=O)O)c2cc(O)cc(O[C@H]4O[C@H](CO)[C@@H](O)[C@H](O)[C@@H]4O)c2-c2cc3ccc2O)O[C@H](CO)[C@@H](O)[C@@H]1O [Teicoplanin A2-2] = 93.23
CCCCCCCCCCCCCCCC(=O)C1=C(O)C(CO)OC1=O (stereo not drawn) [TAN 1364B] = 76.93

Query: Consider the molecule shown here: CCCCCCCCCCCCCCCC(=O)C1=C(O)C(CO)OC1=O (stereo not drawn) [RK-682] What is its recorded Pf_120h_%Growth_Rep2?
Reply: 72.22

###

As shown below, each of these compounds has a reported activity at 2 µg/mL value.
tested on: P. falciparum 3D7 parasites; test: P. falciparum growth inhibition assay, 1-cycle (72 h treatment), SYBR DNA staining (library screen at 2 μg/mL and dose-response); assay type: cell-based, Plasmodium falciparum; details: Plasmodium falciparum, 3D7; library screen at 2 μg/mL, 72 h, % growth, replicate 2; read-out: Pf_72h_%Growth_Rep2
Where a name gives a salt, the structure may show the parent alone. *1 amine or outer side, *2 acyl side, *3 side chain or, on linkers, in order; H or OH if unused. Where a SMILES comes first, the peptide text is derived from it. Bridges are numbered along the chain shown (N, C = ends). [ ]: non-standard residue; d: D form. The star is where a group is joined. pTerphenylCO(4''-OnC5H11) = CCCCCOc1ccc(-c2ccc(-c3ccc(C(=O)*)cc3)cc2)cc1; Orn(4R-OH,5R-OH) = O=C([C@H](C[C@@H](O)[C@@H](O)N[*:3])N[*:1])[*:2]; hTyr(3S-OH,4S-OH) = N[C@H](C(=O)O)[C@H](O)[C@@H](O)c1ccc(O)cc1; Pro(3S-OH,4S-Me) = C[C@H]1CN[C@H](C(=O)O)[C@H]1O; Hyp = O=C(O)[C@@H]1C[C@@H](O)CN1
Express your answer in %, writing the number without its unit.

Examples from the recorded data:
CO/C1=C\C(C)=C\[C@@H](C)[C@@H](O)[C@@H](C)C/C(C)=C/C=C/[C@H](OC)[C@@H]([C@@H](C)[C@@H](O)[C@H](C)[C@@]2(O)C[C@@H](O)[C@H](C)[C@@H](C(C)C)O2)OC1=O [Bafilomycin A1] = 2.45
CC[C@H]1OC(=O)[C@H](C)[C@@H](O[C@H]2C[C@@](C)(OC)[C@@H](O)[C@H](C)O2)[C@H](C)[C@@H](O[C@@H]2O[C@H](C)C[C@H](N(C)C)[C@H]2O)[C@](C)(O)C[C@@H](C)CN(C)[C@H](C)[C@@H](O)[C@]1(C)O [Azithromycin, reference compound] = 53.1
C[C@@H](O)[C@H]1C(=O)N2C(C(=O)O)=C(S[C@@H]3CN[C@H](CNS(N)(=O)=O)C3)[C@H](C)[C@H]12 [Doripenem] = 66.8
CCCCCOc1ccc(-c2ccc(-c3ccc(C(=O)N[C@H]4C[C@@H](O)[C@@H](O)NC(=O)[C@@H]5[C@@H](O)[C@@H](C)CN5C(=O)[C@H]([C@@H](C)O)NC(=O)[C@H]([C@H](O)[C@@H](O)c5ccc(O)cc5)NC(=O)[C@@H]5C[C@@H](O)CN5C(=O)[C@H]([C@@H](C)O)NC4=O)cc3)cc2)cc1 [Anidulafungin] ({pTerphenylCO(4''-OnC5H11)}-[Orn(4R-OH,5R-OH)]T[Hyp][hTyr(3S-OH,4S-OH)]T[Pro(3S-OH,4S-Me)]; lactam 1-C) = 85.8

Query: Consider the compound shown here: CN(C)[C@H]1C(O)=C(C(N)=O)C(=O)[C@@]2(O)C(O)=C3C(=O)c4c(O)cccc4[C@@](C)(O)[C@H]3C[C@@H]12 [Epitetracycline hydrochloride] What is its recorded activity at 2 µg/mL?
Reply: 50.1

Query: Consider the compound shown here: C/C(=C\c1csc(C)n1)[C@@H]1C[C@@H]2O[C@]2(C)CCC[C@H](C)[C@H](O)[C@@H](C)C(=O)C(C)(C)[C@@H](O)CC(=O)O1 [Epothilone B] What is its recorded activity at 2 µg/mL?
Reply: -0.31

Query: Consider the compound shown here: CC[C@H](C)[C@H]1O[C@]2(C=C[C@@H]1C)C[C@@H]1C[C@@H](C/C=C(\C)[C@@H](O[C@H]3C[C@H](OC)[C@@H](O[C@H]4C[C@H](OC)[C@@H](O)[C@H](C)O4)[C@H](C)O3)[C@@H](C)/C=C/C=C3\CO[C@@H]4[C@H](O)C(C)=C[C@@H](C(=O)O1)[C@]34O)O2 [Avermectin B1a] What is its recorded activity at 2 µg/mL?
Reply: 3.85

Query: Consider the compound shown here: C=C1CC[C@H]2C(C)(C)CCC[C@]2(C)[C@H]1C[C@@]12C[C@H]3C(=O)N4CCC[C@H]4C(=O)N3[C@@H]1Nc1ccccc12 [Drimentine C] What is its recorded activity at 2 µg/mL?
Reply: 87.9
